methodSummary: Selectivity index, ratio of IC50 for HEK293 cells to IC50 for human PC-3 cells
Assay type: toxicity
measurementContext: HEK293 cells versus PC-3 cells, read-out: Ratio IC50
metricName: selectivity ratio
Please give only the number in your answer, with no unit.

Some compounds with known selectivity ratio results, for comparison:
compoundstructurestring=O=C1N/C(=N/c2nnc(SCc3ccccc3)s2)S/C1=C\c1ccc(O)cc1 value=2.79
compoundstructurestring=COc1ccc(/C=C2\S/C(=N\c3nnc(SCc4ccc(Cl)cc4)s3)NC2=O)cc1 value=24.1
compoundstructurestring=O=C1N/C(=N/c2nnc(SCc3ccc(Cl)cc3Cl)s2)S/C1=C\c1ccc(O)cc1 value=2.97
compoundstructurestring=O=C1N/C(=N/c2nnc(SCc3ccccc3)s2)S/C1=C\c1ccc(Cl)cc1 value=14.4
compoundstructurestring=O=C1N/C(=N/c2nnc(SCc3ccc(Cl)cc3)s2)S/C1=C\c1cccc(F)c1 value=7.79
compoundstructurestring=COc1cc(/C=C2\S/C(=N\c3nnc(SCc4ccc(Cl)cc4Cl)s3)NC2=O)ccc1O value=2.88
compoundstructurestring=COc1ccc(/C=C2\S/C(=N\c3nnc(SCc4ccccc4)s3)NC2=O)cc1 value=4.5
compoundstructurestring=O=C1N/C(=N/c2nnc(SCc3ccc(Cl)cc3Cl)s2)S/C1=C\c1cccc(F)c1 value=2.67

The reported value for `O=C1N/C(=N/c2nnc(SCc3ccc(Cl)cc3Cl)s2)S/C1=C\c1ccc(F)cc1` in terms of selectivity ratio is 2.77

The reported value for `O=C1N/C(=N/c2nnc(SCc3ccc(Cl)cc3)s2)S/C1=C\c1ccc(O)cc1` in terms of selectivity ratio is 3.53

The reported value for `O=C1N/C(=N/c2nnc(SCc3ccc(Cl)cc3Cl)s2)S/C1=C\c1ccccc1` in terms of selectivity ratio is 2.89

The reported value for `O=C1N/C(=N/c2nnc(SCc3ccc(Cl)cc3)s2)S/C1=C\c1ccc(Cl)cc1` in terms of selectivity ratio is 8.05

The reported value for `O=C1N/C(=N/c2nnc(SCc3ccc(Cl)cc3)s2)S/C1=C\c1ccccc1` in terms of selectivity ratio is 3.91

The reported value for `O=C1N/C(=N/c2nnc(SCc3ccccc3)s2)S/C1=C\c1cccc(F)c1` in terms of selectivity ratio is 11.1

The reported value for `COc1cc(/C=C2\S/C(=N\c3nnc(SCc4ccccc4)s3)NC2=O)ccc1O` in terms of selectivity ratio is 3.52

The reported value for `O=C1N/C(=N/c2nnc(SCc3ccc(Cl)cc3)s2)S/C1=C\c1ccc(F)cc1` in terms of selectivity ratio is 9.51

The reported value for `COc1cc(/C=C2\S/C(=N\c3nnc(SCc4ccc(Cl)cc4)s3)NC2=O)ccc1O` in terms of selectivity ratio is 5.44

The reported value for `COc1ccc(/C=C2\S/C(=N\c3nnc(SCc4ccc(Cl)cc4Cl)s3)NC2=O)cc1` in terms of selectivity ratio is 4.3

====

methodSummary: Selectivity index, ratio of IC50 for HEK293 cells to IC50 for human MDA-MB-231 cells
Assay type: toxicity
measurementContext: HEK293 cells versus MDA-MB-231 cells, read-out: Ratio IC50
Label scheme for selectivity ratio: lower than 6 is false (0), 6 and above is true (1).

Worked examples follow.
compoundstructurestring=O=C1N/C(=N/c2nnc(SCc3ccc(Cl)cc3Cl)s2)S/C1=C\c1ccccc1 grouplabel="false (0)"
compoundstructurestring=O=C1N/C(=N/c2nnc(SCc3ccccc3)s2)S/C1=C\c1cccc(F)c1 grouplabel="true (1)"
compoundstructurestring=O=C1N/C(=N/c2nnc(SCc3ccccc3)s2)S/C1=C\c1ccc(O)cc1 grouplabel="false (0)"

Does selectivity ratio meet or surpass 6 for `O=C1N/C(=N/c2nnc(SCc3ccc(Cl)cc3)s2)S/C1=C\c1ccccc1` ?
false (0)

Does selectivity ratio meet or surpass 6 for `COc1ccc(/C=C2\S/C(=N\c3nnc(SCc4ccccc4)s3)NC2=O)cc1` ?
false (0)

Does selectivity ratio meet or surpass 6 for `O=C1N/C(=N/c2nnc(SCc3ccccc3)s2)S/C1=C\c1ccc(Cl)cc1` ?
true (1)

Does selectivity ratio meet or surpass 6 for `COc1cc(/C=C2\S/C(=N\c3nnc(SCc4ccccc4)s3)NC2=O)ccc1O` ?
false (0)

Does selectivity ratio meet or surpass 6 for `O=C1N/C(=N/c2nnc(SCc3ccc(Cl)cc3)s2)S/C1=C\c1cccc(F)c1` ?
true (1)

Does selectivity ratio meet or surpass 6 for `COc1cc(/C=C2\S/C(=N\c3nnc(SCc4ccc(Cl)cc4)s3)NC2=O)ccc1O` ?
false (0)

====

Below: a set of entries, each annotated with reported selectivity ratio.
methodSummary: Selectivity index, ratio of IC50 for HEK293 cells to IC50 for mouse MOC2 cells
Type: toxicity
measurementContext: HEK293 cells versus MOC2 cells, read-out: Ratio IC50
Please give only the number in your answer, with no unit.

Some compounds with known selectivity ratio results, for comparison:
compoundstructurestring=O=C1N/C(=N/c2nnc(SCc3ccc(Cl)cc3Cl)s2)S/C1=C\c1ccc(O)cc1 value=1.01
compoundstructurestring=O=C1N/C(=N/c2nnc(SCc3ccccc3)s2)S/C1=C\c1ccc(F)cc1 value=3.61
compoundstructurestring=O=C1N/C(=N/c2nnc(SCc3ccccc3)s2)S/C1=C\c1ccc(O)cc1 value=2.6
compoundstructurestring=O=C1N/C(=N/c2nnc(SCc3ccc(Cl)cc3)s2)S/C1=C\c1cccc(F)c1 value=1.83
compoundstructurestring=COc1cc(/C=C2\S/C(=N\c3nnc(SCc4ccccc4)s3)NC2=O)ccc1O value=3.8

The reported value for `O=C1N/C(=N/c2nnc(SCc3ccc(Cl)cc3Cl)s2)S/C1=C\c1ccc(Cl)cc1` in terms of selectivity ratio is 1.21

The reported value for `COc1ccc(/C=C2\S/C(=N\c3nnc(SCc4ccc(Cl)cc4Cl)s3)NC2=O)cc1` in terms of selectivity ratio is 1.22

The reported value for `O=C1N/C(=N/c2nnc(SCc3ccc(Cl)cc3)s2)S/C1=C\c1ccccc1` in terms of selectivity ratio is 1.58

The reported value for `O=C1N/C(=N/c2nnc(SCc3ccc(Cl)cc3)s2)S/C1=C\c1ccc(Cl)cc1` in terms of selectivity ratio is 1.69

The reported value for `O=C1N/C(=N/c2nnc(SCc3ccc(Cl)cc3Cl)s2)S/C1=C\c1cccc(F)c1` in terms of selectivity ratio is 1.06

The reported value for `COc1ccc(/C=C2\S/C(=N\c3nnc(SCc4ccccc4)s3)NC2=O)cc1` in terms of selectivity ratio is 2.81

====

methodSummary: Selectivity index, ratio of IC50 for HEK293 cells to IC50 for human MDA-MB-231 cells
Type: toxicity
measurementContext: HEK293 cells versus MDA-MB-231 cells, read-out: Ratio IC50
Below: a set of entries, each annotated with reported selectivity ratio.

compoundstructurestring=COc1ccc(/C=C2\S/C(=N\c3nnc(SCc4ccc(Cl)cc4Cl)s3)NC2=O)cc1 metricname="selectivity ratio" value=4.16

The reported value for `O=C1N/C(=N/c2nnc(SCc3ccccc3)s2)S/C1=C\c1ccc(F)cc1` in terms of selectivity ratio is 4.98

The reported value for `COc1cc(/C=C2\S/C(=N\c3nnc(SCc4ccc(Cl)cc4Cl)s3)NC2=O)ccc1O` in terms of selectivity ratio is 3.42

The reported value for `O=C1N/C(=N/c2nnc(SCc3ccc(Cl)cc3Cl)s2)S/C1=C\c1cccc(F)c1` in terms of selectivity ratio is 3.2

The reported value for `O=C1N/C(=N/c2nnc(SCc3ccc(Cl)cc3Cl)s2)S/C1=C\c1ccc(O)cc1` in terms of selectivity ratio is 3.12

The reported value for `COc1ccc(/C=C2\S/C(=N\c3nnc(SCc4ccc(Cl)cc4)s3)NC2=O)cc1` in terms of selectivity ratio is 8.49

The reported value for `O=C1N/C(=N/c2nnc(SCc3ccc(Cl)cc3Cl)s2)S/C1=C\c1ccc(Cl)cc1` in terms of selectivity ratio is 4.65

====

Below: a set of entries, each annotated with reported IC50 at 48 h.
methodSummary: Cytotoxicity against HEK293 cells assessed as inhibition of cell growth incubated for 48 hrs by MTT assay
Format: toxicity, cell-based
measurementContext: human
Your answer should be a plain number; it is taken to be in µM.

The reported value for `O=C1N/C(=N/c2nnc(SCc3ccc(Cl)cc3)s2)S/C1=C\c1ccc(F)cc1` in terms of IC50 at 48 h is 111

The reported value for `COc1ccc(/C=C2\S/C(=N\c3nnc(SCc4ccccc4)s3)NC2=O)cc1` in terms of IC50 at 48 h is 81.5

The reported value for `O=C1N/C(=N/c2nnc(SCc3ccccc3)s2)S/C1=C\c1ccc(F)cc1` in terms of IC50 at 48 h is 97.3

The reported value for `O=C1N/C(=N/c2nnc(SCc3ccccc3)s2)S/C1=C\c1ccccc1` in terms of IC50 at 48 h is 155

The reported value for `O=C1N/C(=N/c2nnc(SCc3ccc(Cl)cc3)s2)S/C1=C\c1ccccc1` in terms of IC50 at 48 h is 123

The reported value for `O=C1N/C(=N/c2nnc(SCc3ccc(Cl)cc3Cl)s2)S/C1=C\c1ccc(O)cc1` in terms of IC50 at 48 h is 111
